tested system: T1, C-terminally FLAG-tagged human Gas6 recombinant protein (hGas6-F) (human, UniProt Q14393 31-678, gamma-carboxylated glutamic acid residues in the Gla domain (producer cells co-express rat VKOR and human GGCX); positions not given)
T1 construct: also called human Gas6-F; human Gas6 protein
T1 sequence: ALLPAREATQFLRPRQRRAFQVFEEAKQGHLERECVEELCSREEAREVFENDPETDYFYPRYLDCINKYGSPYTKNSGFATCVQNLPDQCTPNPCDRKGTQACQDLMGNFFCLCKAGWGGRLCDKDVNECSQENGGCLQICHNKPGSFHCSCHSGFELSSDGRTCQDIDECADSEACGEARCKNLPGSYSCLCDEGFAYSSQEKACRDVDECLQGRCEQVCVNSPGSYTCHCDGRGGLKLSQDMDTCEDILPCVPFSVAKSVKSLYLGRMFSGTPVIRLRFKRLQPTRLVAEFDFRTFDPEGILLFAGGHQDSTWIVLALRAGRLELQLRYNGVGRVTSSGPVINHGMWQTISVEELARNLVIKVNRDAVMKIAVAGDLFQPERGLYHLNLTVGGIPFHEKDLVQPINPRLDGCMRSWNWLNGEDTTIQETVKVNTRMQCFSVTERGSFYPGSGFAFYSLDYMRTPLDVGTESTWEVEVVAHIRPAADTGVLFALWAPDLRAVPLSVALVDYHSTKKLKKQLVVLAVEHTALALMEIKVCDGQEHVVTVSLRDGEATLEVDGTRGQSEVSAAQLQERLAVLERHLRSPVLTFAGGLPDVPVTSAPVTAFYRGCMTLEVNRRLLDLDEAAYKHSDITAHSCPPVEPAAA
assay comment: SPR Biacore T100, captured antibody, Gas6 analyte, first test

{"binder": "hzKM5321 LV6HV4b antibody (antibody, V domains shown, Humanized; variant human IgG4 constant region (EU S228P, L235E, R409K), human kappa; also called B-28; LV6HV4b) VH: QVHLVQSGPELKKPGASVKISCKASGYTFTNYGMNWVKQAPGQGLKWMGWINTNTGEPTYTEEFKGRFVFSLDTSVTTSYLQISTLKAEDTATYFCARDEGWFVYWGQGTLVTVSS VL: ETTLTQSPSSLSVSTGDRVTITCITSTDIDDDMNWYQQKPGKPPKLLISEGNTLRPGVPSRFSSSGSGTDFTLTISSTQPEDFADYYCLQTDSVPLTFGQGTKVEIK", "kon": "> 106000 M⁻¹ s⁻¹"}
{"binder": "hzKM5321 LV1bHV7 antibody (antibody, V domains shown, Humanized; variant human IgG4 constant region (EU S228P, L235E, R409K), human kappa; also called B-14; LV1bHV7) VH: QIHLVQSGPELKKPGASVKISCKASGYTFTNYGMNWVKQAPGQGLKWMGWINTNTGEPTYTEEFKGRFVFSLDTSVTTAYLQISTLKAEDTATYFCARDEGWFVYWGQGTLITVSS VL: ETTLTQSPSSLSASVGDRVTITCITSTDIDDDMNWYQQKPGKAPKLLISEGNTLRPGVPSRFSGSGSGTDFTLTISSLQPEDFADYYCLQTDSVPLTFGQGTKVEIK", "kon": "> 100000 M⁻¹ s⁻¹"}
{"binder": "hzKM5320 LV2bHV0 antibody (antibody, V domains shown, Humanized; variant human IgG4 constant region (EU S228P, L235E, R409K), human kappa; also called A-06) VH: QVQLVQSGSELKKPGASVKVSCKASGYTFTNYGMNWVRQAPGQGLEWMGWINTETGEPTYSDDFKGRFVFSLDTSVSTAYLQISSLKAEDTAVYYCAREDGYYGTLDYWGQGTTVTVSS VL: DVVMTQSPDSLAVSAGERVTINCKASQSVSNDVAWYQQKPGQSPKLLIYYASNRYTGVPDRFSGSGSGTDFTFTISSLQAEDVAVYYCQQDYSSPWTFGQGTKLEIK", "kon": "> 72600 M⁻¹ s⁻¹"}
